Reference source for all entries: ChEMBL document CHEMBL4007470

test: Hepatic extraction in human liver S9 fractions at 2 uM by LC-MS/MS analysis; type: ADME; settings: liver S9 fractions, read-out: ERH
Can you tell me hepatic extraction ratio at 2 µM for the items I'm about to list?
Response field accepts a number only; no unit should be typed.

# molecule CCOC(=O)C1(NP(=O)(OC[C@H]2O[C@@H](c3cnc4c(N)ncnn34)[C@](C)(F)[C@@H]2O)Oc2ccccc2)CCC1 (stereo partly drawn) ; its hepatic extraction ratio at 2 µM = 0.88

Query CCOC(=O)[C@H](C)NP(=O)(OC[C@H]1O[C@@H](c2cnc3c(N)ncnn23)[C@](C)(F)[C@@H]1O)Oc1ccccc1 (stereo partly drawn) yields hepatic extraction ratio at 2 µM of 0.83

Item: CC(C)OC(=O)C(C)(C)NP(=O)(OC[C@H]1O[C@@H](c2ccc3c(N)ncnn23)[C@](C)(F)[C@@H]1O)Oc1ccccc1 (stereo partly drawn) | hepatic extraction ratio at 2 µM: 0.65

Measured hepatic extraction ratio at 2 µM, CCOC(=O)C(C)(C)NP(=O)(OC[C@H]1O[C@@H](c2cnc3c(N)ncnn23)[C@](C)(F)[C@@H]1O)Oc1ccccc1 (stereo partly drawn) : 0.62

get_value(item= `CC(C)OC(=O)[C@H](C)N[P@](=O)(OC[C@H]1O[C@@H](c2cnc3c(N)ncnn23)[C@](C)(F)[C@@H]1O)Oc1ccccc1` , readout=hepatic extraction ratio at 2 µM) returns 0.65

Entry CC(C)OC(=O)[C@@H](C)NP(=O)(OC[C@H]1O[C@@H](c2cnc3c(N)ncnn23)[C@](C)(F)[C@@H]1O)Oc1ccccc1 (stereo partly drawn) — recorded hepatic extraction ratio at 2 µM = 0.17

The reported value for CCOC(=O)[C@@H](C)NP(=O)(OC[C@H]1O[C@@H](c2cnc3c(N)ncnn23)[C@](C)(F)[C@@H]1O)Oc1ccccc1 (stereo partly drawn) in terms of hepatic extraction ratio at 2 µM is 0.28

Data point: CC(C)OC(=O)C1(NP(=O)(OC[C@H]2O[C@@H](c3cnc4c(N)ncnn34)[C@](C)(F)[C@@H]2O)Oc2ccccc2)CCC1 (stereo in doubt; 37) ; hepatic extraction ratio at 2 µM = 0.79
